assay_summary: HepG2 liver cancer cell viability effects, profiling panel, resazurin fluorescence, 24 h, PK04 Diversity Set (AID 1172); note: test concentration not given here
condition_summary: higher = more signal
Lab note: anything with z-score at or over -0.3 counts as class 1; the rest go in class 0.

Quick check: does CCN1C(=O)[C@H]2[C@H]3[C@H](O)[C@H](O)CC(=NO[C@@H]4O[C@H](COC(C)=O)[C@@H](OC(C)=O)[C@H](OC(C)=O)[C@H]4OC(C)=O)[C@@H]3CC[C@H]2C1=O have z-score greater than or equal to -0.3?
class 0

* * *

Test system: Inhibin beta A chain (activin A)
assay_summary: INHBA (activin A) binders on microarrays, primary screen, biochemical, small-molecule microarray, 635 nm fluorescence scan (AID 1107);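 note: mouse activin A protein probed at 4.33 µg/mL on printed slides; score merges bound-protein fluorescence near 667 nm with spot signal-to-noise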
condition_summary: small-molecule microarray binding, higher = more signal
Lab note: anything with composite z-score at or over 0.2 counts as Satisfied; the rest go in Not satisfied.

For orientation, consider the following solved cases.
>>> label_class("CO[C@@H]1COC(=O)[C@@H]2CCCN2C(=O)[C@@H](C)COC(=O)CCC[C@H]1C")
"Not satisfied"
>>> label_class("CON(C)C(=O)c1nnc2c(n1)[nH]c1ccccc12")
"Satisfied"

Quick check: does CC(C)(C)N1C(=O)[C@H]2[C@H]3[C@H](O)[C@H](O)CC(=NOC[C@@H](O)COCc4ccco4)[C@@H]3CC[C@H]2C1=O have composite z-score greater than or equal to 0.2?
Satisfied

Another: O=C1CCCC=C1C(O)C1CCCCC1 (centres undefined)
Satisfied

Another: COC(=O)C(C(=O)OC)C1CCCC(=O)C1 (centres undefined)
Not satisfied

Another: CCN1C(=O)[C@H]2[C@H]3[C@H](O)[C@H](O)CC(=NO[C@H](C)c4cn([C@@H]5COC[C@H]5O)nn4)[C@@H]3CC[C@H]2C1=O
Not satisfied

Another: CON=C(C)CCN1CCc2nc(-c3ccccc3)c(-c3ccccc3)cc2C1
Satisfied

Another: CC1(C)O[C@H]2O[C@H]([C@H](O)CON=C3[C@H]4CCn5c(=O)n(-c6ccccc6)c(=O)n5[C@H]4[C@H](O)[C@@H]4O[C@H]34)[C@H](O)[C@H]2O1
Satisfied

Another: C[C@]12CCC3c4ccc(OCC5CO5)cc4CCC3C1CC[C@@H]2O (some centres undefined)
Satisfied

* * *

Would you kindly list z-score for each of these compounds?
tested_target: Luciferin 4-monooxygenase (Photinus pyralis)
assay_summary: firefly luciferase enzyme inhibitors, primary screen, biochemical, luminescence, purified enzyme, 2006 set (AID 1141);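 note: cell-free assay with purified firefly luciferase at 100 ng per well in PBS; test concentration not given here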
condition_summary: SteadyGlo luminescence, 30 min, higher = more signal, called active from +8 up or from −8 down
Give bare numbers.

Guide cases for z-score, answers given:
>>> test_value("CC(C)=NO[C@@H](C)c1cn([C@H](CO)Cc2ccccc2)nn1")
-2
>>> test_value("O=C1[C@H]2[C@H]3[C@H](O)[C@H](O)CC(=NO[C@@H]4O[C@H](CO)[C@@H](O)[C@H](O)[C@H]4O)[C@@H]3CC[C@H]2C(=O)N1c1cccc(Oc2ccccc2)c1")
0.825
>>> test_value("C[C@H]1CC[C@@H](C(=O)O)N[C@@H]1c1cccc(N2CCCC2=O)c1")
-1.21
>>> test_value("C[C@H]1CC[C@@H](C(=O)O)N[C@@H]1c1ccc(C#Cc2ccccc2)cc1")
-9.82
>>> test_value("CO[C@H]1COC(=O)[C@H](C)COC(=O)[C@@H](OCc2ccccc2)C=C[C@@H]1C")
-1.56
>>> test_value("C[C@@H]1CC[C@H]2C(=O)O[C@@H](COc3ccc(C(C)(C)C)cc3)CN2[C@H]1c1ccc(Br)cc1")
0.104

I would be grateful if you could provide z-score for each of the following entries.
1. CC(C)[C@@H](OCc1ccccc1)[C@H](C)C=NO[C@@H](C)c1cn([C@H](CO)Cc2ccccc2)nn1
2. COC(=O)[C@@H]1CC[C@H](C)[C@@H](c2ccc(C)cc2)N1C(=O)c1ccc(C=NOC[C@H]2O[C@H](c3ccccc3)C=C[C@@H]2Oc2ccc(OC)cc2)cc1

-0.197
1.18

* * *

assay_summary: Plasmodium falciparum growth inhibition, primary screen, strain 3D7, DAPI fluorescence, 100 nL (AID 1184);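 note: parasites grown inside human red blood cells in medium with human serum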
condition_summary: P. falciparum 3D7 growth, 3 d, higher = more signal
Lab note: anything with z-score at or over -0.5 counts as condition met; the rest go in condition not met.

For orientation, consider the following solved cases.
>>> label_class("CCOC(=O)CCN1C(=O)[C@H]2[C@H]3[C@H](O)[C@H](O)CC(=NNC(=O)OCC)[C@H]3CC[C@H]2C1=O")
"condition not met"
>>> label_class("CSCC[C@@H]1NC(=O)CC=C[C@@H](C)COC(=O)[C@H](C)COC1=O")
"condition met"
>>> label_class("CCN1C(=O)[C@H]2[C@H]3[C@H](O)[C@H](O)CC(=NO[C@H](C)c4cn([C@@H]5COC[C@H]5O)nn4)[C@@H]3CC[C@H]2C1=O")
"condition met"

Quick check: does COC(=O)[C@@H]1CC[C@H](C)[C@@H](c2ccc(Br)cc2)N1C(=O)C(F)(F)F have z-score greater than or equal to -0.5?
condition not met

Another: COc1ccc(COC(=O)NN=C2C[C@@H](O)[C@@H](O)[C@@H]3[C@@H]4C(=O)N(C[C@@H]5CCCO5)C(=O)[C@@H]4CC[C@H]23)cc1
condition not met

Another: O=C1CCCC=C1C(O)COCc1ccccc1 (stereo not drawn)
condition not met

Another: COC(=O)[C@@H]1CC[C@H](C)[C@@H](c2ccc(Br)cc2)N1
condition met

Another: CC(=O)OC[C@H]1O[C@H](CC=NO[C@@H](C)c2cn([C@H](CO)Cc3ccccc3)nn2)C=C[C@@H]1OC(C)=O
condition not met

* * *

Would you kindly list composite z-score for each of these molecules?
assay_summary: small-molecule microarray binders of probe aLefty2, primary screen, biochemical, biotinylated probe, 635/667 nm fluorescence (AID 1094);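 note: score merges spot fluorescence near 667 nm with spot signal-to-noise ratio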
condition_summary: higher = more signal
Numbers only.

>>> test_value("CC(C)(C)N1C(=O)[C@H]2[C@H]3[C@H](O)[C@H](O)CC(=NOC[C@@H](O)COCc4ccco4)[C@@H]3CC[C@H]2C1=O")
0.16

I would be grateful if you could provide composite z-score for each of the following entries.
1. CO[C@H]1COC(=O)CC=C[C@@H](C)COC(=O)[C@H]2CCCN2C(=O)CC=C[C@H]1C
2. Cc1ccc(C(C)C)n1C(=O)OC(C)(C)C
3. COC(=O)[C@H](C)NC(=O)CCC1CC(OC(=O)NCc2ccc3c(c2)OCO3)CC2(CCCC(COC(=O)NCCC(C)C)O2)O1 (stereo partly drawn)
4. C=CC[C@@H]1C=C[C@H](ON=C(C)CCN2CCCc3nc(C)c(C)cc32)[C@@H](CO)O1

[-0.194, -0.138, -0.166, 0.475]

* * *

assay_summary: basal MM1S mitochondrial membrane potential changes, profiling panel, cell-based, JC-1 fluorescence, 24 h, 100 nL compound (AID 1170); note: test concentration not given here
condition_summary: higher = more signal
Would you kindly list z-score for each of these compounds?
One number for each entry.

>>> test_value("COC(=O)CC=C[C@@H](C)[C@@H](C=NOC(C)CN1CCCCc2nc(C)c(C)cc21)OC (stereo partly drawn)")
0.444

I would be grateful if you could provide z-score for each of the following entries.
1. CC(CCN1CCCc2nc(C)c(C)cc21)=NOC[C@@H](C)[C@H](OCc1ccccc1)C(C)C
2. O=C1C2=CC[C@H]3C(=O)N(C4CCCCC4)C(=O)[C@H]3[C@H]2[C@H](O)[C@@H]2O[C@H]12
3. COC(OC)[C@@H](C)[C@H](OC)[C@@H](C)[C@H](OC)c1ccccc1
4. CCN1C(=O)[C@H]2[C@H]3[C@H](O)[C@H](O)CC(=NNC(=O)OCc4ccccc4)[C@@H]3CC[C@H]2C1=O
5. CCC1=NOC(CCC2CC(OC(=O)NCc3cccc4c3OCO4)CC3(CCCC(COC(=O)NCCc4ccc(Cl)cc4)O3)O2)C1 (stereo not drawn)
6. COc1ccc(COC(=O)NN=C2C[C@@H](O)[C@@H](O)[C@@H]3[C@@H]4C(=O)N(Cc5ccc6c(c5)OCO6)C(=O)[C@@H]4CC[C@H]23)cc1
7. CC(=O)OC[C@H]1O[C@H](CC=NO[C@@H](C)c2cn([C@H](CO)Cc3ccccc3)nn2)C=C[C@@H]1OC(C)=O

1. -1.46
2. -2.83
3. 1
4. -0.458
5. -0.398
6. -0.825
7. -0.76

* * *

System: Inhibin beta A chain (activin A)
assay_summary: INHBA (activin A) binders on microarrays, primary screen, biochemical, small-molecule microarray, 635 nm fluorescence scan (AID 1107);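 note: mouse activin A protein probed at 4.33 µg/mL on printed slides; score merges bound-protein fluorescence near 667 nm with spot signal-to-noise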
condition_summary: small-molecule microarray binding, higher = more signal
Would you kindly list composite z-score for each of these compounds?
Answers are plain numbers.

Guide cases for composite z-score, answers given:
>>> test_value("CCOC(=O)CCN1C(=O)[C@H]2[C@H]3[C@H](O)[C@H](O)CC(=NO[C@@H]4O[C@H](CO)[C@@H](O)[C@H](O)[C@H]4O)[C@@H]3CC[C@H]2C1=O")
0.898
>>> test_value("COC(=O)[C@H](C)NC(=O)CCC1CC(OC(=O)NCc2cccc3ccccc23)CC2(CCCC(COC(=O)NCc3cccc(C(F)(F)F)c3)O2)O1 (stereo partly drawn)")
-0.108

From here, focus on the item given below.
Reported composite z-score for COC(=O)[C@H](C)NC(=O)CCC1CC(OC(=O)NCc2cccc3ccccc23)CC2(CCCC(COC(=O)NCc3ccccc3)O2)O1 (stereo partly drawn) : what is it?
-0.0949
